- Tested on: MYLK4
- conditionInfo: concentration: 1 μM, replicates: in singlicate; n = 1;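 note: KINOMEscan kinase panel screen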
Each entry below carries its recorded %Inh.
Respond numerically; units are % and should not be typed.

Previously resolved entries follow.
[[record]]
compound = "CC(C)N1CCC(n2cnc(-c3ccc(F)cc3)c2-c2ccnc(N)n2)CC1"
experimentalsystem = "MYLK4"
reportedresult = 9

[[record]]
compound = "Cc1cc(N2CCC(NS(=O)(=O)c3ccc(F)cc3)CC2)nc(Nc2cccc(C#N)c2)n1.O=C(O)C(F)(F)F"
experimentalsystem = "MYLK4"
reportedresult = 0

[[record]]
compound = "COc1ccc(Nc2nccc(N3CCC(NC(=O)c4cccc(NC(C)=O)c4)C3)n2)cc1 (stereo not drawn)"
experimentalsystem = "MYLK4"
reportedresult = 6


The record that follows has no %Inh shown yet.
Q: If you can, please state the reported %Inh value of CCCc1ccc(S(=O)(=O)NC2CCN(c3ccnc(Nc4ccc(OC)cc4)n3)C2)cc1 (stereo not drawn) .
Ans: 0

###

Each entry below carries its recorded %Inh.
- System: TESK1
- conditionInfo: concentration: 1 μM, replicates: in singlicate; n = 1
Respond numerically; units are % and should not be typed.

[[record]]
smi = "Cn1ccc2ncnc(Nc3ccc(Oc4cccc(Cl)c4)c(Cl)c3)c21"
reportedresult = 13

[[record]]
smi = "NC(=O)c1sc(-n2cnc3ccccc32)cc1OCc1ccccc1F"
reportedresult = 24

[[record]]
smi = "Cl.Cn1ccc(-c2cccc(Nc3ccnc4cc(-c5nccs5)ccc34)c2)n1"
reportedresult = 34

[[record]]
smi = "O=C(Nc1ccccc1)Nc1ccc(Oc2ccc3nccn3n2)cc1"
reportedresult = 11

[[record]]
smi = "CS(=O)(=O)CCNCc1nc(-c2ccc3ncnc(Nc4ccc(OCc5cccc(F)c5)c(Cl)c4)c3c2)cs1.Cl"
reportedresult = 80


The record that follows has no %Inh shown yet.
Q: Lab note: need %Inh with TESK1 for entry `CSc1nn2c(=O)cc(N3CCOCC3)nc2n1Cc1cccc(Cl)c1Cl` , please look it up.
Ans: 7

###

- System: CDK4
- conditionInfo: concentration: 1 μM, replicates: in singlicate; n = 1
Each entry below carries its recorded %Inh.

Previously resolved entries follow.
[[record]]
compound = "Nc1nccc2scc(-c3ccc4c(c3)CCN4C(=O)Cc3cc(F)ccc3F)c12 [GSK2587663]"
reportedresult = "0%"

[[record]]
compound = "Cc1cc(N2CCC(NS(=O)(=O)c3ccc(F)cc3)CC2)nc(Nc2cccc(C#N)c2)n1.O=C(O)C(F)(F)F [GSK1653537]"
reportedresult = "5%"

[[record]]
compound = "O=C(NCCCN1CCCC1=O)c1cnc(NCc2cc(Cl)ccc2Cl)nc1NC1CCNCC1"
reportedresult = "0%"


The record that follows has no %Inh shown yet.
Q: If you can, please state the reported %Inh value of `OCCOCCn1ccc2ncnc(Nc3ccc(Oc4cccc(Cl)c4)c(Cl)c3)c21` .
Ans: 0%

###

- Test system: ERK8
- Construct: gene MAPK15
- conditionInfo: concentration: 1 μM, replicates: in singlicate; n = 1
readout: %Inh (%)
Respond numerically; units are % and should not be typed.

Previously resolved entries follow.
[[record]]
smi = "COC(=O)c1cccc(NC(=O)NCCNc2ccnc(Nc3ccc(F)cc3)n2)c1"
reportedresult = 0

[[record]]
smi = "Cn1ccc2ncnc(Oc3ccc(NC(=O)Nc4cccnc4)c(Cl)c3)c21"
reportedresult = 0


Q: If you can, please state the reported %Inh value of `C[C@@H]1CCN(C(=O)CO)C[C@@H]1N(C)c1ncnc2[nH]ccc12` .
Ans: 9

Q: If you can, please state the reported %Inh value of `Cl.O=S(=O)(c1cccc(F)c1)c1ccc(Nc2ncnc3cc(Br)sc23)cc1Cl` .
Ans: 0

Q: If you can, please state the reported %Inh value of `Fc1cccc(COc2ccc(Nc3ncnc4nn5ccccc5c34)cc2Cl)c1` .
Ans: 0

Q: If you can, please state the reported %Inh value of `Fc1ccc(-c2ncn(CCCNCc3ccccc3)c2-c2ccncc2)cc1` .
Ans: 13

Q: If you can, please state the reported %Inh value of `Fc1ccc(Nc2nccc(-c3c(-c4ccc(Cl)cc4)nn4ncccc34)n2)cc1F` .
Ans: 0

Q: If you can, please state the reported %Inh value of `Cn1cc(-c2ccc3c(c2)CCN3C(=O)Cc2cccc(C(F)(F)F)c2)c2c(N)ncnc21` .
Ans: 23

###

Each entry below carries its recorded %Inh.
- Test system: PCTK1
- Construct: gene CDK16
- conditionInfo: concentration: 1 μM, replicates: in singlicate; n = 1
Respond numerically; units are % and should not be typed.

Q: If you can, please state the reported %Inh value of `Cl.c1ccc(Cn2ncc3cc(Nc4ncnc5ccccc45)ccc32)cc1` .
Ans: 0

###

- Tested on: PAK1
- conditionInfo: concentration: 1 μM, replicates: in singlicate; n = 1
readout: %Inh (%)
Respond numerically; units are % and should not be typed.

Q: If you can, please state the reported %Inh value of `Cc1cc(N2CCC(NS(=O)(=O)c3ccc(F)cc3)CC2)nc(Nc2cccc(C#N)c2)n1.O=C(O)C(F)(F)F` .
Ans: 0

Q: If you can, please state the reported %Inh value of `CS(=O)(=O)CCNCc1ccc(-c2ccc3ncnc(Nc4ccc(OCc5ccccc5)c(Cl)c4)c3c2)o1.Cl` .
Ans: 0

Q: If you can, please state the reported %Inh value of `O=C(Nc1ccccc1)Nc1ccc(Oc2ccc3nccn3n2)cc1` .
Ans: 0

Q: If you can, please state the reported %Inh value of `Cl.c1ccc(Cn2ncc3cc(Nc4ncnc5ccccc45)ccc32)cc1` .
Ans: 5

###

- Tested on: CLK2
- conditionInfo: concentration: 1 μM, replicates: in singlicate; n = 1
readout: %Inh (%)
Respond numerically; units are % and should not be typed.

[[record]]
molecule = "O=C(Nc1n[nH]c2nc(-c3ccco3)c(Br)cc12)c1ccc(CN2CCCC2)cc1.O=C(O)[C@H](O)[C@@H](O)C(=O)O [SB-742352]"
valueunits = "%"
reportedresult = 12

[[record]]
molecule = "Cc1ccc(C)c(NC(=O)NCCNc2ccnc(Nc3ccc(F)cc3)n2)c1 [GSK1379878]"
valueunits = "%"
reportedresult = 0

[[record]]
molecule = "COc1ccc(NC(=O)c2ccc(-c3cc(-c4nnc(C)o4)ccc3C)cc2)cc1 [GW595885]"
valueunits = "%"
reportedresult = 0

[[record]]
molecule = "CC(C)N1CCC(n2cnc(-c3ccc(F)cc3)c2-c2ccnc(N)n2)CC1 [SB-223132]"
valueunits = "%"
reportedresult = 0

[[record]]
molecule = "Fc1cccc(COc2ccc(Nc3ncnc4nn5ccccc5c34)cc2Cl)c1 [GW689066]"
valueunits = "%"
reportedresult = 0


Q: If you can, please state the reported %Inh value of Cc1ccc(NC(=O)c2cccc(C#N)c2)cc1-c1ccc(C(=O)Nc2ccncc2)cc1 [GSK1398463] .
Ans: 0

Q: If you can, please state the reported %Inh value of CS(=O)(=O)CCNCc1nc(-c2ccc3ncnc(Nc4ccc(OCc5cccc(F)c5)c(Cl)c4)c3c2)cs1.Cl [GW583340] .
Ans: 0

Q: If you can, please state the reported %Inh value of `N#Cc1ccc(Oc2ccc(Nc3ncnc4cc[nH]c34)cc2Cl)cc1` .
Ans: 19

Q: If you can, please state the reported %Inh value of `C[C@@H]1CCN(C(=O)CO)C[C@@H]1N(C)c1ncnc2[nH]ccc12` .
Ans: 6

###

- Tested on: CSNK1D
- conditionInfo: concentration: 1 μM, replicates: in singlicate; n = 1
Each entry below carries its recorded %Inh.
Respond numerically; units are % and should not be typed.

[[record]]
molecule = "Cl.O=S(=O)(c1cccc(F)c1)c1ccc(Nc2ncnc3cc(Br)sc23)cc1Cl [GSK306886]"
reportedresult = 36

[[record]]
molecule = "Oc1ccc2ncnc(Nc3ccc(OCc4ccccc4)cc3)c2c1 [GI262866]"
reportedresult = 4


Q: If you can, please state the reported %Inh value of `OCCOCCn1ccc2ncnc(Nc3ccc(Oc4cccc(Cl)c4)c(Cl)c3)c21` .
Ans: 0

###

- Test system: RPS6KA5(Kin.Dom.2-C-terminal)
- conditionInfo: concentration: 1 μM, replicates: in singlicate; n = 1
readout: %Inh (%)
Respond numerically; units are % and should not be typed.

Previously resolved entries follow.
[[record]]
smi = "CSc1nn2c(=O)cc(N3CCOCC3)nc2n1Cc1cccc(Cl)c1Cl"
reportedresult = 8

[[record]]
smi = "O=C(Nc1n[nH]c2nc(-c3ccco3)c(Br)cc12)c1ccc(CN2CCCC2)cc1.O=C(O)[C@H](O)[C@@H](O)C(=O)O"
reportedresult = 0


Q: If you can, please state the reported %Inh value of `Cc1ccc(NC(=O)c2cccc(C#N)c2)cc1-c1ccc(C(=O)Nc2ccncc2)cc1` .
Ans: 1

Q: If you can, please state the reported %Inh value of `CN1c2ccc(-c3ccc(C(=O)NCCO)cc3)cc2-c2[nH]ncc2S1(=O)=O` .
Ans: 14

Q: If you can, please state the reported %Inh value of `CCc1nc(-c2cccc(N(C)S(=O)(=O)c3ccccc3)c2)c(-c2ccnc(Nc3ccc(N4CCN(C(C)=O)CC4)nc3)n2)s1` .
Ans: 2

Q: If you can, please state the reported %Inh value of `Nc1nc(-c2ccccn2)c(-c2ccnc3ccccc23)s1` .
Ans: 33

Q: If you can, please state the reported %Inh value of `Cc1cccc(-c2nc(Nc3ccc4[nH]nnc4c3)c3ccccc3n2)n1` .
Ans: 0

Values were extracted from paper PMC5540273.
